assay: Nuclear factor erythroid 2-related factor 2/antioxidant responsive element (Nrf2/ARE) small molecule agonists: luciferase reporter gene qHTS assay in human keratinocytes (AID 1919969); conditions: KeratinoSens HaCaT ARE-luciferase, luminescence, 24 h; series mostly up to 92.4 µM; note: nearly all actives have a fitted effect of over 35% in size
Inconclusive results are not listed. The source made the active and inactive calls. Calls come from the whole dose curve.
// one of Y (active), N (inactive), no free text

(Q) Dear all, I need the recorded test outcome for `O=C(O)c1cc(N=Nc2ccc(S(=O)(=O)Nc3ccccn3)cc2)ccc1O` , thank you.
(A) N

(Q) What do you have for `CCCC/C=C\CCCCCCCCCC=O` ?
(A) N

(Q) Field entry: `O=C1OC(=O)c2ccccc21`
(A) N

(Q) Same read-out for `CCCCCCCCCCCCCCO` ?
(A) N

(Q) Query `O=C(O)c1cccc(C(F)(F)F)c1` next
(A) N

(Q) Next molecule up: `CC(=O)OCCN(CCOC(C)=O)c1ccc(N=Nc2ccc([N+](=O)[O-])cc2C#N)cc1`
(A) N

(Q) How about `OCC(CO)(CBr)CBr` ?
(A) N

(Q) // repeat for `C=C1C[C@H]2[C@@H]3C=C(C)C4=CC(=O)CC[C@]4(C)[C@H]3CC[C@]2(C)[C@@]1(OC(C)=O)C(C)=O` and report
(A) N

(Q) How about this molecule: `CC1=CCC(=O)O1`
(A) N

(Q) Do the same for `COc1ccc2cc3[n+](cc2c1OC)CCc1cc2c(cc1-3)OCO2` please
(A) N

(Q) Try `COC(=O)/C=C/c1ccccc1` next.
(A) N

(Q) Please give the result for `CC(=O)c1ccc2ccccc2c1` too.
(A) N

(Q) Item: `Nc1nnnn1-c1ccccc1`
(A) N

(Q) Cool, now `Cc1ccc(-c2ccccc2)cc1`
(A) N

(Q) Now the molecule `CCCCCCCC(=O)OCCCCCC`
(A) N

(Q) Same read-out for `CCOc1ccc(Cc2nccc3cc(OCC)c(OCC)cc23)cc1OCC` ?
(A) N

(Q) Follow-up entry: `CCC(=O)Nc1cccc(N)c1`
(A) N

(Q) Another molecule to look at: `Nc1nc(=O)n([C@@H]2O[C@H](CO)[C@@H](O)[C@@H]2F)cc1I`
(A) N

(Q) Here is the next molecule: CC(C[N+](C)(C)C)OC(N)=O (configuration not stated)
(A) N

(Q) Next molecule up: Cc1ccc(C(C)NC(=O)[C@@H](NC(=O)OC(C)C)C(C)C)cc1 (some centres not stated)
(A) N

(Q) Quick one: `CC1(C)Oc2ccc(C#N)cc2[C@@H](N2CCCC2=O)[C@@H]1O`
(A) N

(Q) Queued: `CC(C)C(=O)OCCOc1ccccc1`
(A) N

(Q) Input COC(=O)CC(C(C)=O)C(=O)OC (configuration not stated)
(A) N

(Q) Let us now turn to `CCN(CC)CCNC(=O)c1ccc(NC(C)=O)cc1`
(A) N

(Q) Param item: `COc1cc(C(=S)N2CCOCC2)cc(OC)c1OC`
(A) N

(Q) Let us now turn to `Oc1ccc(C(c2ccc(O)cc2)C(Cl)(Cl)Cl)cc1`
(A) Y

(Q) Same question, `Nc1cc(-c2ccncc2)c[nH]c1=O` this time
(A) N

(Q) For `COc1cc(/C=C/C(=O)O[C@H]2CC[C@]34C[C@]35CC[C@]3(C)[C@@H]([C@H](C)CCC=C(C)C)CC[C@@]3(C)[C@@H]5CC[C@H]4C2(C)C)ccc1O` then?
(A) N

(Q) Next molecule up: `O=Cc1cc2ccccc2o1`
(A) N

(Q) Now give it for `CC1=C(C=O)C(C)(C)CC=C1` too.
(A) N

(Q) One more molecule: `CC(C)OCCO`
(A) N

(Q) Next up: `OCCCC1CCCCC1`
(A) N

(Q) Now consider `C[n+]1ccn(Cc2ccccc2)c1` and answer again.
(A) N

(Q) Same lookup for `N#CC1(O)CCCCC1` , please.
(A) Y

(Q) Moving on to the next molecule: `CN(C(=O)c1c(O)c2ccccc2n(C)c1=O)c1ccccc1`
(A) N

(Q) Note, next up: `OCCC(F)(F)C(F)(F)C(F)(F)C(F)(F)C(F)(F)C(F)(F)F`
(A) N

(Q) Another: `ON(Cc1ccccc1)Cc1ccccc1`
(A) N

(Q) Same lookup for `CCNc1nc(N)nc(Cl)n1` , please.
(A) N

(Q) Also CC(=O)C(C)O (configuration not stated) , if possible.
(A) N

(Q) Try this molecule next: `O=S(=O)(Oc1ccc(Cl)cc1Cl)c1ccccc1`
(A) Y

(Q) Then `O=C1CC[C@H](C(=O)N2CCCCC2)N1` ?
(A) N

(Q) Now consider `FC(F)(F)c1ccccc1` and answer again.
(A) N

(Q) Now the same for `O=C1NCCN1CCO`
(A) N

(Q) Likewise for `NC(=O)c1ccc([N+](=O)[O-])cc1Cl` ?
(A) N

(Q) Now this one: `Nc1ccc(NCCO)c([N+](=O)[O-])c1`
(A) N

(Q) Note, next up: `O=C1c2ccccc2C(=O)C1c1ccc2cc(S(=O)(=O)O)cc(S(=O)(=O)O)c2n1`
(A) N

(Q) Next molecule: `C[C@@H]1CCC[C@H](C)N1`
(A) N

(Q) Further, for COC(CC(C)CCCC(C)(C)O)OC (configuration not stated) ?
(A) N

(Q) Cool, now `CS(=O)(=O)c1ccc(Cl)cc1`
(A) N

(Q) How about CCCC(C)CO (configuration not stated) ?
(A) N

(Q) Continue with `C=Cc1ccccn1`
(A) N

(Q) Also need `CN(C)Cc1ccccc1O` , thanks.
(A) N

(Q) Ok, now `N#C[C@@H]1C[C@@H]2C[C@@H]2N1C(=O)[C@@H](N)C12CC3CC(CC(O)(C3)C1)C2`
(A) N

(Q) Ok, now `CCOC(/C=C(\C)CCC=C(C)C)OCC`
(A) N

(Q) Next up: `COc1cccc(Br)c1`
(A) N

(Q) `CC(C)CCCCCOC(=O)CCS` , same question.
(A) N

(Q) Cool, now `CCC/C=C/CO`
(A) N

---

assay: Nuclear factor erythroid 2-related factor 2/antioxidant responsive element (Nrf2/ARE) small molecule agonists: qHTS cell viability counter screen in human keratinocytes (AID 1919968); conditions: KeratinoSens HaCaT ARE cells viability, CellTiter-Fluor, 24 h; series mostly up to 92.4 µM; note: nearly all actives have a fitted effect of over 55% in size
Results filed as inconclusive are left out. Active and inactive are the calls of the source. Calls come from the whole dose curve; as a rule, active = well fitted cell-killing curve with a large enough effect in the repeat runs; inconclusive = weak or mixed curves, or effect the other way; inactive = flat fitted curve, though single readings scatter.
value-type: outcome

- compound: "O=[Si]=O"
  result: "inactive"
- compound: "OCC(O)CN1CCN(c2ccccc2)CC1 (stereo not drawn)"
  result: "inactive"
- compound: "CCC(=O)c1ccc(O)cc1"
  result: "inactive"
- compound: "CCCCCCCCSCC"
  result: "inactive"
- compound: "COc1cc(/C=C/C(N)=O)cc(OC)c1OC"
  result: "inactive"

Turning now to a further compound:
(Q) If you can, please state the reported outcome value of CCCCC(O)/C=C(C)/C=C/C=C/C(=O)N1CCCC1=O (stereo not drawn) .
(A) inactive

---

Assay: p53 small molecule agonists, cell-based qHTS assay: qHTS cell viability counter screen (AID 1963581); note: nearly all actives have a fitted effect of over 45% in size
Conditions: p53RE-bla HCT-116 viability, ATP luminescence, 16 h; series mostly up to 66 µM
Text: National Center for Advancing Translational Sciences [NCATS] Division of Preclinical Innovation [DPI] U.S. Environmental Protection Agency [EPA] National Institutes of Environmental Health Sciences [NIEHS] National Toxicology Program [NTP] U.S. Food and Drug Administration [FDA] p53, a tumor suppressor protein, is activated following cellular insult, including DNA damage and other cellular stresses. […] The activation of the reporter gene under culture conditions can be detected by fluorescence intensity. […]
Records with an inconclusive call do not appear. Activity calls are given as the source filed them. Calls come from the whole dose curve.
value-type: activity change, negative = cytotoxicity

Study these solved cases before continuing.
- compound: "CCCCCCCCCCCCCC"
  activity change, negative = cytotoxicity: "inactive"
- compound: "Cc1ccc(C(=O)C(=O)O)cc1C"
  activity change, negative = cytotoxicity: "inactive"
- compound: "CCCCC(CC)COCCC#N (centres undefined)"
  activity change, negative = cytotoxicity: "inactive"
- compound: "C=CCOCC(CO)(COCC=C)COCC=C"
  activity change, negative = cytotoxicity: "inactive"
- compound: "O=C1CC(c2ccc(Cl)cc2)CC(=O)N1"
  activity change, negative = cytotoxicity: "inactive"
- compound: "O=C1c2c(O)ccc(Nc3ccc(CCO)cc3)c2C(=O)c2c([N+](=O)[O-])ccc(O)c21"
  activity change, negative = cytotoxicity: "inactive"

(Q) Fill blank: measured activity change, negative = cytotoxicity of the compound `COc1ccc(N)c(C)c1` is ____.
(A) inactive

(Q) What do we get for `O=c1cc(CO)occ1O` ?
(A) inactive

(Q) How about `C1=C\CC/C=C\CC/C=C\CC/1` ?
(A) inactive

(Q) // repeat for `CN(C)CCCNCCCN` and report
(A) inactive

(Q) Same lookup for `C=C(C)C(=O)NCCCN(C)C` , please.
(A) inactive

The reported numbers originate from PubChem BioAssay (Tox21).
